Quick reference: pEC50 of the listed items.
- TEST TARGET: T1, human LAG3, full length, stably expressed on cells (human, UniProt P18627 23-525)
- T1 construct: whole, on cells; also called CHOK1-human LAG3
- T1 sequence (looked up): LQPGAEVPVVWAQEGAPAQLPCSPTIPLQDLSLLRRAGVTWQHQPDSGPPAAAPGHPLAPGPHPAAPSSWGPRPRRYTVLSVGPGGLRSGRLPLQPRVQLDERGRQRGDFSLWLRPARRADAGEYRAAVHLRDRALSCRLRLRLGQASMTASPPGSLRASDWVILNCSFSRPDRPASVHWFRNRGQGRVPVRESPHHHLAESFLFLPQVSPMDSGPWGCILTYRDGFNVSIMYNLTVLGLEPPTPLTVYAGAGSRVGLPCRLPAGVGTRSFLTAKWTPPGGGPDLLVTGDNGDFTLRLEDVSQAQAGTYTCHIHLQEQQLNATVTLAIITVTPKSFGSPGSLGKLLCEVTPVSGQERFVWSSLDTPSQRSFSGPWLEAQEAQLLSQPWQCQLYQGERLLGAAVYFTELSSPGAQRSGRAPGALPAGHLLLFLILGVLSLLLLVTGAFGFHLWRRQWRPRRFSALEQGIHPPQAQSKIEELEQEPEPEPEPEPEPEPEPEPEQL
- EXPERIMENT SUMMARY: FACS on 293F cells stably expressing human LAG3
pEC50: −log10 of the molar value.
ASSAY ENDPOINT: pEC50

BINDER	ASSAY ENDPOINT	MEASURED
033c (antibody, human IgG4, V domains shown, human IgG4 S228P / kappa chimeric antibody; also called chimeric antibody 033; not shown: human kappa light chain constant region (pcDNA3.4-hIgGk vector)) VH: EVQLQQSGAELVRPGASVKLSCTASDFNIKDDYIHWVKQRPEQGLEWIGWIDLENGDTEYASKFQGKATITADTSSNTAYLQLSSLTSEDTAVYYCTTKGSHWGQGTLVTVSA VL: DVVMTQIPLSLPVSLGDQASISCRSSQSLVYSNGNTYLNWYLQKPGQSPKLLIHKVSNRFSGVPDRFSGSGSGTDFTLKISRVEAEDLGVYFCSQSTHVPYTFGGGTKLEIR	pEC50	8.62
029c (antibody, human IgG4, V domains shown, human IgG4 S228P / kappa chimeric antibody; also called chimeric antibody 029; not shown: human kappa light chain constant region (pcDNA3.4-hIgGk vector)) VH: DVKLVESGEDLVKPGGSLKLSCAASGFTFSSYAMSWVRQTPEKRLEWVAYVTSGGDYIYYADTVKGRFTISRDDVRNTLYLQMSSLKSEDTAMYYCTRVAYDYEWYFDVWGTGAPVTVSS VL: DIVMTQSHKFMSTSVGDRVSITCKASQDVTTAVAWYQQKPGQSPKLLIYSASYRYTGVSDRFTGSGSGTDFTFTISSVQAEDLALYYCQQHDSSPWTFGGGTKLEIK	pEC50	8.80
